Test system: johnsongrass
method: Test F preemergence test
Assay type: in vivo, Sorghum halepense
condition.description: 125 g ai/ha, preemergence, scale 0 to 100
measurement.type: Johnsongrass plant response rating
Enter the number alone.

Please review the entries below; each comes with its answer.
[[record]]
compound = "Cn1nc(C(F)(F)F)c(C[S+]([O-])c2ccc(F)c[n+]2[O-])c1OC(F)F (stereo not shown)"
quantitative_result = 100

[[record]]
compound = "Cc1cc[n+]([O-])c([S+]([O-])Cc2c(C(F)(F)F)nn(C)c2OCC(F)(F)F)c1 (racemic)"
quantitative_result = 100

[[record]]
compound = "Cn1nc(C(F)(F)F)c(C[S+]([O-])c2ccc(F)c[n+]2[O-])c1OCC(F)(F)F (stereo not shown)"
quantitative_result = 95

[[record]]
compound = "Cc1cc[n+]([O-])c(S(=O)(=O)Cc2c(C(F)(F)F)nn(C)c2Cl)c1"
quantitative_result = 98

[[record]]
compound = "Cn1nc(C(F)(F)F)c(C[S+]([O-])c2cccc[n+]2[O-])c1OCC(F)(F)F (racemic)"
quantitative_result = 100

[[record]]
compound = "CCn1nc(C(F)(F)F)c(C[S+]([O-])c2cc(C)cc[n+]2[O-])c1OCC(F)(F)F (racemic)"
quantitative_result = 100


Shifting focus to the compound that follows.
Asked: Data request, read-out Johnsongrass plant response rating, for Cn1nc(C(F)(F)F)c(C[S+]([O-])c2ccc(Cl)c[n+]2[O-])c1OCC(F)F (stereo not shown)
Given back: 98

----------
Test system: crabgrass
method: Test C pre-/postemergence test
Type: in vivo, Digitaria sanguinalis
condition.description: 62 g ai/ha, Preemergence; scale 0 to 100
measurement.type: Crabgrass, Large plant response rating
Enter the number alone.

Please review the entries below; each comes with its answer.
[[record]]
compound = "Cn1nc(C(F)(F)F)c(C[S+]([O-])c2ccc(F)c[n+]2[O-])c1Cl (stereo not drawn) [Compound 54]"
subject_of_test = "crabgrass"
quantitative_result = 100

[[record]]
compound = "CC(Oc1c(C[S+]([O-])c2ccc(Cl)c[n+]2[O-])c(C(F)(F)F)nn1C)C(F)(F)F (stereo not drawn) [Compound 87]"
subject_of_test = "crabgrass"
quantitative_result = 95

[[record]]
compound = "Cn1nc(C(F)(F)F)c(C[S+]([O-])c2ccc(Cl)c[n+]2[O-])c1OCC(F)(F)F (racemic) [Compound 62]"
subject_of_test = "crabgrass"
quantitative_result = 80


Asked: Data request, read-out Crabgrass, Large plant response rating, for Cn1nc(C(F)(F)F)c(C[S+]([O-])c2cc(C(F)(F)F)cc[n+]2[O-])c1Cl (racemic) [Compound 34]
Given back: 100

Asked: Here is the next compound: CCc1cc[n+]([O-])c(S(=O)(=O)Cc2c(C(F)(F)F)nn(C)c2OC(F)F)c1 [Compound 102]
Given back: 95

Asked: Here is the next compound: CCc1cc[n+]([O-])c(S(=O)(=O)Cc2c(C(F)(F)F)nn(C)c2OCC(F)(F)F)c1 [Compound 60]
Given back: 100

Asked: Here is the next compound: Cn1nc(C(F)(F)F)c(C[S+]([O-])c2cc(Br)cc[n+]2[O-])c1Cl (racemic) [Compound 35]
Given back: 100

Asked: Here is the next compound: CCc1cc[n+]([O-])c([S+]([O-])Cc2c(C(F)(F)F)nn(C)c2OCC(F)(F)F)c1 (stereo not drawn) [Compound 59]
Given back: 80

Asked: Here is the next compound: Cn1nc(C(F)(F)F)c(CS(=O)(=O)c2cccc[n+]2[O-])c1OCC(F)(F)F [Compound 29]
Given back: 100

Recorded values, source patent US20100298141A1.
